- System: ECV-304
- testDetails: Protection of hydrogen peroxide-induced damage in ECV304 cells
- Type: functional, cell-based
- conditionDetails: Homo sapiens
quantity: pEC50
The read-out pEC50 is expressed as -log10 of concentration in moles per litre.

Observe how each entry below is paired with its result.
chemicalStructure | pEC50
Cc1nc(C)c(CN2CCN(Cc3cccc(C#N)c3)CC2)nc1C | 2.95
CCc1ccc(CN2CCN(Cc3nc(C)c(C)nc3C)CC2)cc1 | 3.43
Cc1nc(C)c(CN2CCNCC2)nc1C | 3.32
Cc1nc(C)c(CN2CCN(Cc3ccccc3C#N)CC2)nc1C | 3.20
Cc1nc(C)c(CN2CCN(c3ccccc3)CC2)nc1C | 3.18

Next up:
Give recorded pEC50. Cc1nc(C)c(CN2CCN(Cc3ccccc3Br)CC2)nc1C 3.11

###

Activity for assorted compounds
- System: Plasma
- testDetails: Inhibition of ADP-induced platelet aggregation in rabbit plasma at 200 uM
- Type: functional, Oryctolagus cuniculus
- Parameters: scale not given: the % may be the effect or the level left
Please state the figure in %; there is no need to write the unit.

chemicalStructure | unitString | Activity
Cc1nc(C)c(CN2CCN(Cc3cccc(C#N)c3)CC2)nc1C | % | 14.19
Cc1nc(C)c(CN2CCN(Cc3ccccc3Br)CC2)nc1C | % | 7.68

Give recorded Activity. Cc1nc(C)c(CN2CCN(C(c3ccccc3)c3ccccc3)CC2)nc1C 9.88
